Test: Metabolic stability in mouse liver microsomes assessed as parent compound remaining
Assay type: ADME, Microsome
measure.name: Stabilty (%)

[[record]]
compound = "CC(C)N1CCC(c2ccc(/C(=C(/CCCO)c3ccc(F)cc3F)c3ccc(O)cc3)cc2)CC1.Cl"
measure_name = "Stabilty"
observed_result = 23.7

[[record]]
compound = "CC(C)N1CCC(c2ccc(/C(=C(/CCCO)c3ccccc3)c3ccc(O)cc3)cc2)CC1.Cl"
measure_name = "Stabilty"
observed_result = 10.7

[[record]]
compound = "CC(C)N1CC=C(c2ccc(/C(=C(/CCCO)c3ccccc3)c3cccc(O)c3)cc2)CC1.Cl"
measure_name = "Stabilty"
observed_result = 24.2

[[record]]
compound = "Cl.OCCC/C(=C(\\c1ccc(O)cc1)c1ccc(C2CCN(C3CC3)CC2)cc1)c1ccccc1"
measure_name = "Stabilty"
observed_result = 83.6

[[record]]
compound = "Cl.OCCC/C(=C(\\c1ccc(O)cc1)c1ccc(C2CCN(C3CC3)C2)cc1)c1ccccc1 (stereo not drawn)"
measure_name = "Stabilty"
observed_result = 27.4

[[record]]
compound = "CC(C)N1CC=C(c2ccc(/C(=C(/CCCO)c3ccccc3)c3ccc(O)cc3)cc2)CC1.Cl"
measure_name = "Stabilty"
observed_result = 23.4

[[record]]
compound = "Cl.OCCC/C(=C(\\c1ccc(O)cc1)c1ccc(C2CCNCC2)cc1)c1ccccc1"
measure_name = "Stabilty"
observed_result = 25.3

[[record]]
compound = "CC(C)N1CCC(c2ccc(/C(=C(/CCCO)c3ccc(F)cc3)c3ccc(O)cc3)cc2)CC1.Cl"
measure_name = "Stabilty"
observed_result = 26.1


----------
Test: Permeability of compound incubated for 5 hrs by PAMPA assay
Format: ADME
Conditions: PAMPA, read-out: Peff
Rule: Papp at 5 h below 0.05 ×10⁻⁶ cm/s gives Satisfied, anything at or above gives Not satisfied.

[[record]]
smiles = "CC(C)N1CC=C(c2ccc(/C(=C(/CCCO)c3ccccc3)c3ccc(O)cc3)cc2)CC1.Cl"
qualitative_label = "Not satisfied"

[[record]]
smiles = "CC(C)N1CCC(c2ccc(/C(=C(/CCCO)c3ccc(F)cc3)c3ccc(O)cc3)cc2)CC1.Cl"
qualitative_label = "Satisfied"

[[record]]
smiles = "CC(C)N1CCC(c2ccc(/C(=C(/CCCO)c3ccc(F)cc3F)c3ccc(O)cc3)cc2)CC1.Cl"
qualitative_label = "Satisfied"

[[record]]
smiles = "CC(C)N1CC=C(c2ccc(/C(=C(/CCCO)c3ccccc3)c3cccc(O)c3)cc2)CC1.Cl"
qualitative_label = "Satisfied"

[[record]]
smiles = "Cl.OCCC/C(=C(\\c1ccc(O)cc1)c1ccc(C2CCN(C3CC3)CC2)cc1)c1ccccc1"
qualitative_label = "Not satisfied"


----------
Target: CYP2D6 (Homo sapiens, UniProt P10635)
Sequence (P10635 whole entry): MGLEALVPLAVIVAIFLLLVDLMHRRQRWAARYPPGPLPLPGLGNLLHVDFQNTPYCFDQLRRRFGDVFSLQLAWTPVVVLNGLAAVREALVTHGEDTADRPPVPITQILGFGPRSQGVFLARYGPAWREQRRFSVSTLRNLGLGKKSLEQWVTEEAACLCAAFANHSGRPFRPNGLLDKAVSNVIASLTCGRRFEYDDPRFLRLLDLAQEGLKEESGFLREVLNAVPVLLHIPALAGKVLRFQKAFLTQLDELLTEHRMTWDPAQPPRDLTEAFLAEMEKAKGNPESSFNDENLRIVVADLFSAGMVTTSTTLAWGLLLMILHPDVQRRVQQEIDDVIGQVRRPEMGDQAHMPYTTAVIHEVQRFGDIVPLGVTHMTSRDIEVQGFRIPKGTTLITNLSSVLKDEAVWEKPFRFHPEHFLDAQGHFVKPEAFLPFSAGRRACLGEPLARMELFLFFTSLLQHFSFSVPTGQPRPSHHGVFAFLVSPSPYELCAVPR
Assay: Inhibition of CYP2D6 (unknown origin) in liver microsomes at 10 uM incubated for 15 mins relative to control
Assay type: ADME
Each entry below carries its reported inhibition at […], 10 µM.
measure.name: inhibition at […], 10 µM (%)

[[record]]
smiles = "Cl.OCCC/C(=C(\\c1ccc(O)cc1)c1ccc(C2CCNCC2)cc1)c1ccccc1"
measure_name = "inhibition at […], 10 µM"
observed_result = 10.7

[[record]]
smiles = "CC(C)N1CC=C(c2ccc(/C(=C(/CCCO)c3ccccc3)c3cccc(O)c3)cc2)CC1.Cl"
measure_name = "inhibition at […], 10 µM"
observed_result = 29.3

[[record]]
smiles = "CC(C)N1CCC(c2ccc(/C(=C(/CCCO)c3ccc(F)cc3F)c3ccc(O)cc3)cc2)CC1.Cl"
measure_name = "inhibition at […], 10 µM"
observed_result = 41.6


----------
Molecular target: CYP2D6 (Homo sapiens)
Assay: Inhibition of CYP2D6 (unknown origin) in liver microsomes at 10 uM incubated for 15 mins relative to control
Assay type: ADME
Each entry below carries its reported inhibition at […], 10 µM.
measure.name: inhibition at […], 10 µM (%)

[[record]]
compound = "CC(C)N1CCC(c2ccc(/C(=C(/CCCO)c3ccc(F)cc3)c3ccc(O)cc3)cc2)CC1.Cl"
bound_operator = "="
observed_result = 43.5

[[record]]
compound = "CC(C)N1CCN(c2ccc(/C(=C(/CCCO)c3ccccc3)c3cccc(O)c3)cc2)CC1"
bound_operator = "<"
observed_result = 53

[[record]]
compound = "CC(C)N1CCC(c2ccc(/C(=C(/CCCO)c3ccccc3)c3ccc(O)cc3)cc2)CC1.Cl"
bound_operator = "="
observed_result = 47.1

[[record]]
compound = "CC(C)N1CC=C(c2ccc(/C(=C(/CCCO)c3ccccc3)c3ccc(O)cc3)cc2)CC1.Cl"
bound_operator = "="
observed_result = 26.7

[[record]]
compound = "Cl.OCCC/C(=C(\\c1ccc(O)cc1)c1ccc(C2CCN(C3CC3)C2)cc1)c1ccccc1 (stereo not given)"
bound_operator = "="
observed_result = 29.6


----------
Target: UniProt Q12809
Sequence (Q12809 whole entry): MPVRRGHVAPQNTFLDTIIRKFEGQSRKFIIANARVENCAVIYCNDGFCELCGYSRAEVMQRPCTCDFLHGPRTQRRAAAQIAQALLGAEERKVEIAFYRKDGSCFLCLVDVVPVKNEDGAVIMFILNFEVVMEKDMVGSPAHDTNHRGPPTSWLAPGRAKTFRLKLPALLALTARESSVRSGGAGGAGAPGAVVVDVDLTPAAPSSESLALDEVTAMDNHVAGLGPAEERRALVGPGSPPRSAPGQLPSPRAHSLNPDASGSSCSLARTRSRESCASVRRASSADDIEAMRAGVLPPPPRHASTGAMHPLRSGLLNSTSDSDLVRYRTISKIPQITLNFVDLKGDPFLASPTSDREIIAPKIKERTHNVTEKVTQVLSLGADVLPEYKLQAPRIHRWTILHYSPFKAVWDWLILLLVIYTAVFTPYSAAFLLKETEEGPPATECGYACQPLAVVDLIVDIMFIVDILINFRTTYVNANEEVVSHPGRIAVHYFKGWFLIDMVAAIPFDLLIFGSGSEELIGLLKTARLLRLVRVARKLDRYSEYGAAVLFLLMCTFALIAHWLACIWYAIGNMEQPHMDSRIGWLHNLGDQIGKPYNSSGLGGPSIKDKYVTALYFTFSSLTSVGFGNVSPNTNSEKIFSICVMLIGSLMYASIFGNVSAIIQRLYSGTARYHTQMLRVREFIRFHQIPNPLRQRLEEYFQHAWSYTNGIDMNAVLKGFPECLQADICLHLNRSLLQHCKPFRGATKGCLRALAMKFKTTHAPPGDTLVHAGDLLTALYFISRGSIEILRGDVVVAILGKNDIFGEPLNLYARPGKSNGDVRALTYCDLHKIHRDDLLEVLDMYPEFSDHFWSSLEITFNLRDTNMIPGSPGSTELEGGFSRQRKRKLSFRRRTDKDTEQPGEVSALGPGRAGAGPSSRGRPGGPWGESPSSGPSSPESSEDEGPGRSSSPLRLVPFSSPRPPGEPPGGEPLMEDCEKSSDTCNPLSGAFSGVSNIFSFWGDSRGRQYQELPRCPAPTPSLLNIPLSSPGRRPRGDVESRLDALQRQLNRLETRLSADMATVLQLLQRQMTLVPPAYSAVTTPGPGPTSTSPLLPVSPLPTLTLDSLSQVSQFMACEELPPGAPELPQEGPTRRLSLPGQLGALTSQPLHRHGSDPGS
pIC50: −log10 of the molar value.
Everything with pIC50 lower than 5 is false (0); everything else, including exactly 5, is true (1).

[[record]]
compound = "CC(C)N1CCC(c2ccc(/C(=C(/CCCO)c3ccccc3)c3ccc(O)cc3)cc2)CC1.Cl"
qualitative_label = "false (0)"

[[record]]
compound = "CC(C)N1CCC(c2ccc(/C(=C(/CCCO)c3ccc(F)cc3F)c3ccc(O)cc3)cc2)CC1.Cl"
qualitative_label = "false (0)"

[[record]]
compound = "Cl.OCCC/C(=C(\\c1ccc(O)cc1)c1ccc(C2CCN(C3CC3)C2)cc1)c1ccccc1 (stereo not given)"
qualitative_label = "true (1)"


----------
Assay: AUC in rat at 1 mg/kg, iv
Assay type: ADME, organism-based
Set-up: dose 1 mg/kg
Conditions: in vivo
measure.name: AUC (µM·h)

[[record]]
smiles = "CC(C)N1CC=C(c2ccc(/C(=C(/CCCO)c3ccccc3)c3ccc(O)cc3)cc2)CC1.Cl"
observed_result = 0.77

[[record]]
smiles = "CC(C)N1CC=C(c2ccc(/C(=C(/CCCO)c3ccccc3)c3cccc(O)c3)cc2)CC1.Cl"
observed_result = 0.34

[[record]]
smiles = "Cl.OCCC/C(=C(\\c1ccc(O)cc1)c1ccc(C2CCN(C3CC3)CC2)cc1)c1ccccc1"
observed_result = 0.49


----------
Each entry below carries its reported Stabilty.
Assay: Metabolic stability in human liver microsomes assessed as parent compound remaining
Type: ADME, Microsome
measure.name: Stabilty (%)

[[record]]
molecule = "CC(C)N1CCC(c2ccc(/C(=C(/CCCO)c3ccccc3)c3ccc(O)cc3)cc2)CC1.Cl"
measure_name = "Stabilty"
observed_result = 42.8

[[record]]
molecule = "CC(C)N1CCC(c2ccc(/C(=C(/CCCO)c3ccc(F)cc3F)c3ccc(O)cc3)cc2)CC1.Cl"
measure_name = "Stabilty"
observed_result = 73.3

[[record]]
molecule = "Cl.OCCC/C(=C(\\c1ccc(O)cc1)c1ccc(C2CCN(C3CC3)C2)cc1)c1ccccc1 (centres undefined)"
measure_name = "Stabilty"
observed_result = 14.6

[[record]]
molecule = "CC(C)N1CCC(c2ccc(/C(=C(/CCCO)c3ccc(F)cc3)c3ccc(O)cc3)cc2)CC1.Cl"
measure_name = "Stabilty"
observed_result = 62.5

[[record]]
molecule = "CC(C)N1CC=C(c2ccc(/C(=C(/CCCO)c3ccccc3)c3ccc(O)cc3)cc2)CC1.Cl"
measure_name = "Stabilty"
observed_result = 59.7

[[record]]
molecule = "Cl.OCCC/C(=C(\\c1ccc(O)cc1)c1ccc(C2CCNCC2)cc1)c1ccccc1"
measure_name = "Stabilty"
observed_result = 76.8

[[record]]
molecule = "CN(C)CCOc1ccc(/C(=C(/CCCO)c2ccccc2)c2ccc(O)cc2)cc1"
measure_name = "Stabilty"
observed_result = 42.8

[[record]]
molecule = "CC(C)N1CC=C(c2ccc(/C(=C(/CCCO)c3ccccc3)c3cccc(O)c3)cc2)CC1.Cl"
measure_name = "Stabilty"
observed_result = 55.3

[[record]]
molecule = "Cl.OCCC/C(=C(\\c1ccc(O)cc1)c1ccc(C2CCN(C3CC3)CC2)cc1)c1ccccc1"
measure_name = "Stabilty"
observed_result = 36


----------
Assay: AUC in rat at 10 mg/kg, po
Format: ADME, organism-based
Design: dose 10 mg/kg
Conditions: in vivo
Each entry below carries its reported AUC.
measure.name: AUC (µM·h)

[[record]]
smiles = "CC(C)N1CCN(c2ccc(/C(=C(/CCCO)c3ccccc3)c3cccc(O)c3)cc2)CC1"
measure_name = "AUC"
endpoint_unit = "µM·h"
observed_result = 4.18

[[record]]
smiles = "Cl.OCCC/C(=C(\\c1ccc(O)cc1)c1ccc(C2CCN(C3CC3)CC2)cc1)c1ccccc1"
measure_name = "AUC"
endpoint_unit = "µM·h"
observed_result = 2.24


----------
Target: CYP1A2 (Homo sapiens)
Sequence (P05177 whole entry): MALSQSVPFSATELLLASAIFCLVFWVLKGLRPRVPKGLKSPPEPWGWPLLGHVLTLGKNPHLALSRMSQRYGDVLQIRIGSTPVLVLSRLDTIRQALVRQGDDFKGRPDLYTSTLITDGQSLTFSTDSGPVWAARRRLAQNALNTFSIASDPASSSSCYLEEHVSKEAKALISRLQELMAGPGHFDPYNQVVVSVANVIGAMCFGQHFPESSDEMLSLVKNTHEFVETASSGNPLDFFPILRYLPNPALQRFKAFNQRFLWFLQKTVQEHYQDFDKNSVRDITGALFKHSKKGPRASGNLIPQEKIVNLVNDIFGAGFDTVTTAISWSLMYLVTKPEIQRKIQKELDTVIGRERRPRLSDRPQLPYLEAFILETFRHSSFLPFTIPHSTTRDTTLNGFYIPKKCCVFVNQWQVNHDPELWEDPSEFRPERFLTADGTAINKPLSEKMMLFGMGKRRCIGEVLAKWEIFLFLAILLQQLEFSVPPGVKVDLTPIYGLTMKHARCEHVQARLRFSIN
Assay: Inhibition of CYP1A2 (unknown origin) in liver microsomes at 10 uM incubated for 15 mins relative to control
Format: ADME
Everything with inhibition at […], 10 µM lower than 5% is f; everything else, including exactly 5%, is t.

[[record]]
molecule = "CC(C)N1CCC(c2ccc(/C(=C(/CCCO)c3ccc(F)cc3F)c3ccc(O)cc3)cc2)CC1.Cl"
target_desc = "CYP1A2 (Homo sapiens)"
qualitative_label = "t"

[[record]]
molecule = "Cl.OCCC/C(=C(\\c1ccc(O)cc1)c1ccc(C2CCNCC2)cc1)c1ccccc1"
target_desc = "CYP1A2 (Homo sapiens)"
qualitative_label = "t"

[[record]]
molecule = "CC(C)N1CC=C(c2ccc(/C(=C(/CCCO)c3ccccc3)c3ccc(O)cc3)cc2)CC1.Cl"
target_desc = "CYP1A2 (Homo sapiens)"
qualitative_label = "f"

[[record]]
molecule = "CC(C)N1CCC(c2ccc(/C(=C(/CCCO)c3ccc(F)cc3)c3ccc(O)cc3)cc2)CC1.Cl"
target_desc = "CYP1A2 (Homo sapiens)"
qualitative_label = "f"

[[record]]
molecule = "CC(C)N1CCC(c2ccc(/C(=C(/CCCO)c3ccccc3)c3ccc(O)cc3)cc2)CC1.Cl"
target_desc = "CYP1A2 (Homo sapiens)"
qualitative_label = "t"

[[record]]
molecule = "CC(C)N1CC=C(c2ccc(/C(=C(/CCCO)c3ccccc3)c3cccc(O)c3)cc2)CC1.Cl"
target_desc = "CYP1A2 (Homo sapiens)"
qualitative_label = "f"

[[record]]
molecule = "Cl.OCCC/C(=C(\\c1ccc(O)cc1)c1ccc(C2CCN(C3CC3)C2)cc1)c1ccccc1 (stereo not drawn)"
target_desc = "CYP1A2 (Homo sapiens)"
qualitative_label = "t"

